- ASSAY TARGET: Kappa-type opioid receptor (Homo sapiens)
- Sequence (P41145 whole entry): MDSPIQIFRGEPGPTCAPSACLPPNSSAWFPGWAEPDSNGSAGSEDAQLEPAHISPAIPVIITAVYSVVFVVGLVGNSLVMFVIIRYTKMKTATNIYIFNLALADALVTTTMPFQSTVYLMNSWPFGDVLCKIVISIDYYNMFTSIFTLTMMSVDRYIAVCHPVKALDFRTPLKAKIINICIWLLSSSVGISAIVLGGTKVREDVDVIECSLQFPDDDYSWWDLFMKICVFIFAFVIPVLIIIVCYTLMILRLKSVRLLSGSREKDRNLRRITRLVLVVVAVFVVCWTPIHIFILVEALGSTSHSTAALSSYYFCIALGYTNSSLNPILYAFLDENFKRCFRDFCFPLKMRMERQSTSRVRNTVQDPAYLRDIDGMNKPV
- ASSAY NAME: Agonist activity at human kappa opioid receptor expressed in HEK293 cells by [35S]GTPgammaS binding
pEC50: −log10 of the molar value.

- COMPOUND: "CC1(N2CCC(n3c(-c4cccc(C(F)(F)F)c4)nc4ccccc43)CC2)CCCCCCC1"
  pEC50: 5.80
- COMPOUND: "CC1(N2CCC(n3c([C@@H]4CCCNC4)nc4ccccc43)CC2)CCCCCCC1"
  pEC50: 7.10
- COMPOUND: "CC1(N2CCC(n3c([C@H]4CCCNC4)nc4ccccc43)CC2)CCCCCCC1"
  pEC50: 8.08
- COMPOUND: "CC1CN(c2nc3ccccc3n2C2CCN(C3(C)CCCCCCC3)CC2)CC(C)N1 (stereo not drawn)"
  pEC50: 7.74
- COMPOUND: "CN1CCC[C@H](c2nc3ccccc3n2C2CCN(C3(C)CCCCCCC3)CC2)C1"
  pEC50: 7.89
- COMPOUND: "CC1(N2CCC(n3c(-c4cccc(OCCO)c4)nc4ccccc43)CC2)CCCCCCC1"
  pEC50: 7.32
- COMPOUND: "CN1CCC[C@@H](c2nc3ccccc3n2C2CCN(C3(C)CCCCCCC3)CC2)C1"
  pEC50: 7.15
- COMPOUND: "CC1(N2CCC(n3c(-c4cccc(CN)c4)nc4ccccc43)CC2)CCCCCCC1"
  pEC50: 6.81

----------
- ASSAY TARGET: Mu-type opioid receptor (Homo sapiens)
- Sequence (P35372 whole entry): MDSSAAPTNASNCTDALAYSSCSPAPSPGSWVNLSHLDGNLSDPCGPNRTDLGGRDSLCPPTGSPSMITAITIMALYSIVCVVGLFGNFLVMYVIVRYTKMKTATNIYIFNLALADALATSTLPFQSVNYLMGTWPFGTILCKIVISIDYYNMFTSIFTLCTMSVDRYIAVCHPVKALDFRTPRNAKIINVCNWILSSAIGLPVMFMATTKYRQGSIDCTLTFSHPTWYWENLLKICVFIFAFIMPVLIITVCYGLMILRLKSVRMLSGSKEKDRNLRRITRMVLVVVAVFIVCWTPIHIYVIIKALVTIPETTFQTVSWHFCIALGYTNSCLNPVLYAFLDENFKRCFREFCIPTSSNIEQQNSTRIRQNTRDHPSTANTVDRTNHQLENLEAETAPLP
- ASSAY NAME: Agonist activity at human mu opioid receptor expressed in CHOK1 cells by [35S]GTPgammaS binding
pEC50: −log10 of the molar value.

- COMPOUND: "CC1CN(c2nc3ccccc3n2C2CCN(C3(C)CCCCCCC3)CC2)CC(C)N1 (stereo not given)"
  INEQUALITY SYMBOL: "="
  pEC50: 6.71
- COMPOUND: "CC1(N2CCC(n3c(-c4cccc(CN)c4)nc4ccccc43)CC2)CCCCCCC1"
  INEQUALITY SYMBOL: "="
  pEC50: 6.47
- COMPOUND: "CC1(N2CCC(n3c(-c4cccc(OCCO)c4)nc4ccccc43)CC2)CCCCCCC1"
  INEQUALITY SYMBOL: "<"
  pEC50: 6.41
- COMPOUND: "CC1(N2CCC(n3c(-c4cccc(C(F)(F)F)c4)nc4ccccc43)CC2)CCCCCCC1"
  INEQUALITY SYMBOL: "="
  pEC50: 5.00
- COMPOUND: "CN1CCC[C@@H](c2nc3ccccc3n2C2CCN(C3(C)CCCCCCC3)CC2)C1"
  INEQUALITY SYMBOL: "="
  pEC50: 7.17
- COMPOUND: "CC1(N2CCC(n3c(-c4ccc5cc[nH]c5c4)nc4ccccc43)CC2)CCCCCCC1"
  INEQUALITY SYMBOL: "="
  pEC50: 5.06
- COMPOUND: "CC1(N2CCC(n3c(-c4cc5ccccc5o4)nc4ccccc43)CC2)CCCCCCC1"
  INEQUALITY SYMBOL: "="
  pEC50: 5.43
- COMPOUND: "CN1CCC[C@H](c2nc3ccccc3n2C2CCN(C3(C)CCCCCCC3)CC2)C1"
  INEQUALITY SYMBOL: "="
  pEC50: 7.15
- COMPOUND: "CC1(N2CCC(n3c(-c4cccc(S(C)(=O)=O)c4)nc4ccccc43)CC2)CCCCCCC1"
  INEQUALITY SYMBOL: "="
  pEC50: 6.54
- COMPOUND: "CC1(N2CCC(n3c(-c4ccc(F)c(Cl)c4)nc4ccccc43)CC2)CCCCCCC1"
  INEQUALITY SYMBOL: "="
  pEC50: 6.12
